For reference, Ki measured on cloned human α1D receptor (Homo sapiens):
// note: answer is a bare numeric in nM

The following compounds have reported results that may help.
| compound | Ki (nM) |
| --- | --- |
| CC1(C)OC(=O)N(C(=O)NCC(O)CN2CCC(C#N)(c3ccccc3)CC2)C1c1ccc(F)c(F)c1.Cl (stereo not drawn) [Example 28, Hydrochloride] | 3660 |
| COC(=O)C1(c2ccccc2)CCN(CCNC(=O)N2C(=O)OCC2c2ccc(F)c(F)c2)CC1 (stereo not drawn) [Example 21] | 2460 |

Next compound, Ki to be filled in.
For the record COc1ccccc1N1CCN(CCCCCN2C(=O)OCC2c2ccc(F)c(F)c2)CC1 (stereo not drawn) [Example 2] , what value of Ki is listed for cloned human α1D receptor (Homo sapiens)?
11

---

Counter-ions that a name gives are not always drawn.
// reported melting point per item

The following molecules have reported results that may help.
| molecule | melting point |
| --- | --- |
| Cl.Cl.O=C1OCC(c2ccc(F)c(F)c2)N1C(=O)N1CCCC(CN2CCC(c3ccccn3)CC2)C1 (stereo not drawn) | 176 to 178 °C |
| CC1(C)OC(=O)N(C(=O)NCC(O)CN2CCC(C#N)(c3ccccc3)CC2)C1c1ccc(F)c(F)c1.Cl (stereo not drawn) | 135 to 137 °C |
| COC(=O)C1(c2ccccc2)CCN(CCNC(=O)N2C(=O)OCC2c2ccc(F)c(F)c2)CC1 (stereo not drawn) (as salt: hydrochloride) | 80 to 85 °C |
| O=C(NCCCN1CCC(c2ccccc2)(c2ccco2)CC1)N1C(=O)OCC1c1ccc(F)c(F)c1 (stereo not drawn) (as salt: HCl) | 149 to 151 °C |
| COc1ccccc1N1CCN(CCCCCN2C(=O)OCC2c2ccc(F)c(F)c2)CC1 (stereo not drawn) (as salt: hydrochloride) | 174 to 178 °C |
| CC1(C)OC(=O)N(C(=O)NCC(F)CN2CCC(C#N)(c3ccccc3)CC2)C1c1ccc(F)c(F)c1.Cl (stereo not drawn) | 120 to 122 °C |
| CC(=O)OC1(c2ccccc2)CCN(CCCNC(=O)N2C(=O)OC(C)(C)C2c2ccc(F)c(F)c2)CC1.Cl (stereo not drawn) | 116 to 118 °C |
| N#CC1(c2ccccc2)CCC(N2CCN(C(=O)N3C(=O)OCC3c3ccc(F)c(F)c3)CC2)CC1 (stereo not drawn) (as salt: HCl) | 148 to 151 °C |

I have this molecule here, Cl.N#CC1(c2ccccc2)CCN(CCCNC(=O)N2C(=O)OCC2(c2ccccc2)c2ccccc2)CC1 , and I need its recorded melting point.
139 to 141 °C

---

// reported pKi per item
- target of assay: UniProt:P35368
- Sequence (P35368 1-520): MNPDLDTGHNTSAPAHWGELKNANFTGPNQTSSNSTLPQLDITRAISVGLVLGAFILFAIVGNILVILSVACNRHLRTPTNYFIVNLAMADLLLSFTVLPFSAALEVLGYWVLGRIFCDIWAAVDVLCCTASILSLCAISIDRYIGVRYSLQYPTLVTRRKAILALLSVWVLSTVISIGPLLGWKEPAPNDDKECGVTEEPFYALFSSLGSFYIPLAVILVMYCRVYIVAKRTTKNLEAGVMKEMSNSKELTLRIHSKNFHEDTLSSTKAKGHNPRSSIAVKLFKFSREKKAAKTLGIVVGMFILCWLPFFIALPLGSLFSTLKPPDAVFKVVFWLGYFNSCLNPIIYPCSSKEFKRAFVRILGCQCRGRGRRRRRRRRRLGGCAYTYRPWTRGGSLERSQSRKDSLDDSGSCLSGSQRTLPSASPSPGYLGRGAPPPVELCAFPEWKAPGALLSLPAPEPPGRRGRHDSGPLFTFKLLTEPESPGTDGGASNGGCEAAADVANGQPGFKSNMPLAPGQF
pKi here is simply -log10 of the concentration when that concentration is written in mol/L.

The following molecules have reported results that may help.
| molecule | readout value |
| --- | --- |
| CC1(C)OC(=O)N(C(=O)NCC(O)CN2CCC(C#N)(c3ccccc3)CC2)C1c1ccc(F)c(F)c1.Cl (stereo not drawn) [Example 28, Hydrochloride] | 5.40 |
| COc1ccccc1N1CCN(CCCCCN2C(=O)OCC2c2ccc(F)c(F)c2)CC1 (stereo not drawn) [Example 2] | 7.68 |

I have this molecule here, COC(=O)C1(c2ccccc2)CCN(CCNC(=O)N2C(=O)OCC2c2ccc(F)c(F)c2)CC1 (stereo not drawn) [Example 21] , and I need its recorded pKi.
6.05
